Origin of values: patent US20240158386A1

Target: Human recombinant NLRP3 protein (Homo sapiens)
Construct: purchased BPS Bioscience, San Diego CA
Sequence (Q96P20 whole entry): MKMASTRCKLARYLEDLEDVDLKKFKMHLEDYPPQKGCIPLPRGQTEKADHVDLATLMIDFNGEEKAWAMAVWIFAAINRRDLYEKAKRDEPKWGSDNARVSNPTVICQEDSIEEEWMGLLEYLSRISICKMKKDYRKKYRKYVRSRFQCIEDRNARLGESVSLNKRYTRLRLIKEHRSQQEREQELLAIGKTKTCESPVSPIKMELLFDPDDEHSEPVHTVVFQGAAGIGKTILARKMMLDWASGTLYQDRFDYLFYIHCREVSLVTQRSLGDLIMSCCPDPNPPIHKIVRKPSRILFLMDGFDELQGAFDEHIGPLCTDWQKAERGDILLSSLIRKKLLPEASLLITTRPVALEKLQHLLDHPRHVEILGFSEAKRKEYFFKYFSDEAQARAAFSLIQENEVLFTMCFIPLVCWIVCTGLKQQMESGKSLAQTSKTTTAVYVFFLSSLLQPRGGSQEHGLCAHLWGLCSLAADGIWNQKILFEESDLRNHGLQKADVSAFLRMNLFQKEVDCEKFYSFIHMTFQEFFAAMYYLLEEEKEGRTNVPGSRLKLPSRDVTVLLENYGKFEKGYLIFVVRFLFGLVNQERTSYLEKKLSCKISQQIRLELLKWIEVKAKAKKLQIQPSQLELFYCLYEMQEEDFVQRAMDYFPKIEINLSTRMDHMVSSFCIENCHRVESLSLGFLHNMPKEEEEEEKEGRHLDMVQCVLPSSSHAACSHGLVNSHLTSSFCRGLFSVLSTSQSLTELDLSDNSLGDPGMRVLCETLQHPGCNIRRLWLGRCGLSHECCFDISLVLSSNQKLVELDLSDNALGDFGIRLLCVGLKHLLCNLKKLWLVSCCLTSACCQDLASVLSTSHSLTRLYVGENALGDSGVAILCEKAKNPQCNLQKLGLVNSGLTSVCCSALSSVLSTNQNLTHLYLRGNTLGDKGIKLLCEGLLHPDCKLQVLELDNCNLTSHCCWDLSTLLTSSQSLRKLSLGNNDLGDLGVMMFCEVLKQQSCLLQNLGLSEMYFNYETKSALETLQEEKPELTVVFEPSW
Assay: Inhibition of the NLRP3 ATPase activity (cell-free, ADP-Glo)
Type: biochemical
Conditions: nonlinear fit, isolated protein, 10 μM ATP
ASSAY_METRIC: pIC50
# pIC50 = -log10(concentration in molar units)

Output measured pIC50 for this item: O=C(Cn1c(=O)oc2ccccc21)NCc1cncc(-c2ccsc2)c1 [Compound C77]
7.40

###

Target: NLRP3 inflammasome (Mus musculus, UniProt Q8R4B8)
Construct: endogenous in cells; host or cells: primary microglia from cortices of 2-3 day old WT mouse pups
Sequence (Q8R4B8 whole entry): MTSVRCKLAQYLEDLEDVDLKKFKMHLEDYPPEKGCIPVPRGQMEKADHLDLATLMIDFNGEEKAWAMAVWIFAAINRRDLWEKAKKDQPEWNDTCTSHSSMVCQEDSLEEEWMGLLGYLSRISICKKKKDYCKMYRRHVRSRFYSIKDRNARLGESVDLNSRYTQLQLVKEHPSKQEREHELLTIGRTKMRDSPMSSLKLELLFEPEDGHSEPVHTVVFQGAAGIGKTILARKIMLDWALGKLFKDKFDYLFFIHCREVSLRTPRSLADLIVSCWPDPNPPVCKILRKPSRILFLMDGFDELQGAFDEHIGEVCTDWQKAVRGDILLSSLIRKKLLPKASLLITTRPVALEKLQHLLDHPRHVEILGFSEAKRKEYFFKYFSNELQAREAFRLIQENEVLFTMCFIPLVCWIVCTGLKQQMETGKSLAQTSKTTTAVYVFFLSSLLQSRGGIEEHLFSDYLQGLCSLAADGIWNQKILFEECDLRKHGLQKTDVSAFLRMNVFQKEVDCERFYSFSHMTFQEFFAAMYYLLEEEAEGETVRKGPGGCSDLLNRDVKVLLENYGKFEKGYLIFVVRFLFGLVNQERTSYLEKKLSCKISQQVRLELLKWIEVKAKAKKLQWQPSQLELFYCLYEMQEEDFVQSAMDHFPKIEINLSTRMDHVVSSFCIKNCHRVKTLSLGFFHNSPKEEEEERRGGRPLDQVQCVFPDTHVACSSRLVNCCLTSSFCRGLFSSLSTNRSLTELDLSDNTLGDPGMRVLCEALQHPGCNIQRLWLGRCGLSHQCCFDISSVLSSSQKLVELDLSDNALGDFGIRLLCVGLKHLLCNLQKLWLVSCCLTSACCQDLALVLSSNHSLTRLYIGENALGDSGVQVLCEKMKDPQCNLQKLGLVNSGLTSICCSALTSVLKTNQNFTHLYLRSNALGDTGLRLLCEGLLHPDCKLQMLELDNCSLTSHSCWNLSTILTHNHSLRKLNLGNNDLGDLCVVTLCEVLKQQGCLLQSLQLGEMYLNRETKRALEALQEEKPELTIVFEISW
Assay: NLRP3 inflammasome activation assay: IL-1β release by primary microglia after LPS and ATP
Assay type: cell-based, murine
Conditions: IL-1β release, microglia, LPS and ATP; nonlinear fit of dose-response; read-out: IC50
ASSAY_METRIC: pIC50
# pIC50 = -log10(concentration in molar units)

Solved cases (2 shown):
O=C(Cn1c(=O)oc2ccccc21)NCc1cncc(-c2ccsc2)c1 [Compound C77]	5.39
O=C(Cn1c(=O)oc2ccccc21)NCCn1cc(-c2ccoc2)cn1 [Compound C78]	5.08

Consider now this further compound.
For NLRP3 inflammasome (Mus musculus, UniProt Q8R4B8), give the measured pIC50 of the entry O=C(Cn1c(=O)oc2ccccc21)NCC(O)(c1ccoc1)c1ccco1 (stereo not drawn) [Compound C75]
5.03
